Source of measurements: PubChem BioAssay

target system: Albumin (Bos taurus)
protocol summary: compounds binding labelled BSA control protein – biochemical, small-molecule microarray, Alexa647 label, 635/667 nm fluorescence, artefact control for SMM control protein annotation, profiling panel (AID 1118);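 also: score merges 667 nm emission intensity and signal-to-noise per printed compound spot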
condition context: BSA-A647 binding, fluorescence 635 nm, higher = more signal
Label scheme for composite z-score: lower than 0.6 is criterion not met, 0.6 and above is criterion met.

Solved entries (count: 6):
1. CC(C)NC(=O)[C@@H]1c2ccccc2C(=O)N(Cc2ccccc2C(F)(F)F)[C@H]1c1ccc(CO)cc1 ... criterion not met
2. OCCCC1=CC(c2ccc(CN3CCCC3)cc2)N(Cc2cccc(OC(F)(F)F)c2)CC1 (centres undefined) ... criterion not met
3. Cc1ccc(S[C@]2(C(=O)NCC(F)(F)F)CC(=O)N(Cc3ccccc3C(F)(F)F)[C@@H]2c2ccc(CO)cc2)cc1 ... criterion not met
4. O=C1NC(=O)C2C1C=CC(C(O)c1ccc([N+](=O)[O-])cc1)N2Nc1ccccn1 (centres undefined) ... criterion not met
5. C=C1C(=O)C=C2CN(C(=O)c3ccccc3)[C@@](Cc3ccc(OC)cc3)(C(=O)OC)[C@@H]12 ... criterion met
6. CO[C@H]1O[C@H](CO)[C@@H](OC(=O)Nc2ccc3c(c2)OCO3)[C@H](OC(=O)Nc2ccccc2-c2ccccc2)[C@H]1OC(=O)Nc1ccccc1-c1ccccc1 ... criterion not met

Query: Check if composite z-score >= 0.6 (inclusive). Item: COC(=O)[C@@]1(Cc2ccc(OC)cc2)[C@H]2c3cc(C(=O)N4CCCC4)n(Cc4ccc(Cl)c(C(F)(F)F)c4)c3C[C@H]2CN1C(=O)c1ccccc1
Result: criterion met

Query: Decide: composite z-score of COC(=O)[C@@]1(Cc2ccc(F)cc2)[C@H]2c3cc(C(=O)N(C)C)n(C)c3C[C@H]2CN1C(=O)c1ccccc1 >= 0.6?
Result: criterion met

Query: Item COCCOC(=O)N1C(=O)[C@@]2(c3cc(C#CCC(C(=O)OC)C(=O)OC)ccc31)[C@H](c1ccc(O)cc1)N1[C@H](c3ccccc3)[C@H](c3ccccc3)OC(=O)[C@H]1[C@@H]2C(=O)Nc1nc2ccccc2s1 with composite z-score of 0.6 or above?
Result: criterion met

Query: Does composite z-score meet or surpass 0.6 for CN1C(=O)C2C(C1=O)C1C=C(CCCO)C2C(C2CC2)N1Cc1cccc(OC(F)(F)F)c1 (centres undefined) ?
Result: criterion met

Query: Hi team, for CCCC[C@H]1OB(O)C[C@H]2C1=C(COc1ccccc1)C[C@H]1C(=O)C=CC(=O)[C@H]12 , is the recorded composite z-score at or above 0.6?
Result: criterion not met

Query: Answer whether composite z-score of Cc1ccc(S[C@]2(C(=O)NCc3ccccc3)CC(=O)N(Cc3ccccc3C(F)(F)F)[C@@H]2c2ccc(CO)cc2)cc1 is greater than or equal to 0.6.
Result: criterion not met

Query: composite z-score >= 0.6 for COC(=O)C(CC#Cc1ccc2c(c1)[C@]1(C(=O)N2)[C@H](C(=O)N2CCc3cc(OC)c(OC)cc3C2)[C@H]2C(=O)O[C@H](c3ccccc3)[C@H](c3ccccc3)N2[C@@H]1c1ccccc1OCCO)C(=O)OC ?
Result: criterion not met

Query: Record C=C(/C(=C/C[C@@H](OC(C)=O)c1cccc(OCCO)c1)c1cnc2ccccc2c1)C(C)C ; criterion: composite z-score no lower than 0.6. Met?
Result: criterion not met
